So I've got a bunch of compounds here, and I need their log10 IC50 values.
Biological target: Human plasma renin (Homo sapiens)
Sequence (P00797 67-406): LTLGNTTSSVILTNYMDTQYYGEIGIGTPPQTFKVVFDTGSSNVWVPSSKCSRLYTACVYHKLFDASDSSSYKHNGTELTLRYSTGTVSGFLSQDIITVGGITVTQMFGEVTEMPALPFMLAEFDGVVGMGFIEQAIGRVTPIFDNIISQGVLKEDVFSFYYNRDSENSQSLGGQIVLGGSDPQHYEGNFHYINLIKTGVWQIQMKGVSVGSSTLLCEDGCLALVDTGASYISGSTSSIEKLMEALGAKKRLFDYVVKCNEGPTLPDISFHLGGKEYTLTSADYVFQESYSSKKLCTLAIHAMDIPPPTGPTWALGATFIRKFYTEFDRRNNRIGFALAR
Test: Human plasma renin inhibiting activities (angiotensin I measured by radio immunoassay)
Conditions: pH7.4, 37° C., one hour, read-out: 50% inhibition concentration IC50
Heads up, the numbers here are log10 of IC50 in nM units.

Item CCCC[C@H](NC(=O)[C@H](Cc1cccc2ccccc12)NC(=O)OCc1ccccc1)C(=O)N[C@@H](CC(C)C)[C@@H](O)/C=C(\CCCO)C(=O)NCC(C)C was tested on Human plasma renin (Homo sapiens); the reported log10 IC50 is 2.20

Item CCCC[C@H](NC(=O)[C@H](Cc1cccc2ccccc12)NC(=O)OCc1ccccc1)C(=O)N[C@@H](CC(C)C)[C@@H](O)/C=C(/C(=O)NCC(C)C)C(C)C was tested on Human plasma renin (Homo sapiens); the reported log10 IC50 is 2.18

Item CCCC[C@H](NC(=O)[C@H](Cc1cccc2ccccc12)NC(=O)OCc1ccccc1)C(=O)N[C@@H](CC(C)C)[C@@H](O)/C=C(/CCC)C(=O)NCC(C)C was tested on Human plasma renin (Homo sapiens); the reported log10 IC50 is 2.49

Item CCCC[C@H](NC(=O)[C@H](Cc1cccc2ccccc12)NC(=O)OCc1ccccc1)C(=O)N[C@@H](CC(C)C)[C@@H](O)/C=C/C(=O)NCC(C)C was tested on Human plasma renin (Homo sapiens); the reported log10 IC50 is 3.15

Item CCCC[C@H](NC(=O)[C@H](Cc1cccc2ccccc12)NC(=O)OCc1ccccc1)C(=O)N[C@@H](CC(C)C)[C@@H](O)/C=C(\CC)C(=O)NCC(C)C was tested on Human plasma renin (Homo sapiens); the reported log10 IC50 is 1.28
